Ref: ChEMBL document CHEMBL1130413

Collected MIC values appear next to each entry.
# Tested on: E6SM
# assay: 50% Minimum inhibitory concentration which is required to reduce cytopathogenicity induced by (196) strain of HSV-2 virus on human E6SM cells.
# Assay type: functional

NC(=O)c1ncn([C@@H]2O[C@H](CO)[C@@H](O)[C@H]2O)n1    150 µg/mL
CO/N=C1/C[C@H](n2cc(C)c(=O)[nH]c2=O)O[C@@H]1CO.CO/N=C1\C[C@H](n2cc(C)c(=O)[nH]c2=O)O[C@@H]1CO    > 200 µg/mL
O=c1[nH]c(=O)n([C@H]2C[C@H](O)[C@@H](CO)O2)cc1/C=C/Br    > 400 µg/mL

For the next question, use this compound.
Query: MIC; subject: Cc1cn(C2C/C(=[N+](/[O-])O)C(CO)O2)c(=O)[nH]c1=O (centres undefined)
> 200 µg/mL

* * *

# System: MT4
# assay: Cytotoxic concentration which is required to reduce human MT-4 cell viability by 50%.
# Type: functional
measured-quantity: CC50 (mg/L)
Give the value, in units of mg/L, as a plain number.

Here's what some known entries look like.
CO/N=C1/C[C@H](n2cc(C)c(=O)[nH]c2=O)O[C@@H]1CO.CO/N=C1\C[C@H](n2cc(C)c(=O)[nH]c2=O)O[C@@H]1CO    182
Cc1cn([C@H]2C[C@H](N=[N+]=[N-])[C@@H](CO)O2)c(=O)[nH]c1=O    1.5
Cc1cn(C2C/C(=N\O)C(CO)O2)c(=O)[nH]c1=O (stereo unspecified)    1.6
Cc1cn(C2CC([N+](=O)[O-])C(CO)O2)c(=O)[nH]c1=O (stereo unspecified)    93
Cc1cn(C2C/C(=[N+](/[O-])O)C(CO)O2)c(=O)[nH]c1=O (stereo unspecified)    91

For the next question, use this compound.
Query: CC50; subject: CC(=O)O/N=C1/C[C@H](n2cc(C)c(=O)[nH]c2=O)O[C@@H]1CO.CC(=O)O/N=C1\C[C@H](n2cc(C)c(=O)[nH]c2=O)O[C@@H]1CO (racemic)
7.1

* * *

# assay: Minimum cytotoxic concentration which causes microscopically detectable alteration of normal cell morphology after 2 days of incubation.
# Assay type: functional
# test-conditions: 48 h
measured-quantity: MCC

NC(=O)c1ncn([C@@H]2O[C@H](CO)[C@@H](O)[C@H]2O)n1    > 400 µg/mL
O=c1[nH]c(=O)n([C@H]2C[C@H](O)[C@@H](CO)O2)cc1/C=C/Br    > 300 µg/mL
CC(=O)O/N=C1/C[C@H](n2cc(C)c(=O)[nH]c2=O)O[C@@H]1CO.CC(=O)O/N=C1\C[C@H](n2cc(C)c(=O)[nH]c2=O)O[C@@H]1CO (racemic)    400 µg/mL
Nc1nc2c(ncn2COC(CO)CO)c(=O)[nH]1    > 100 µg/mL
Cc1cn(C2C/C(=[N+](/[O-])O)C(CO)O2)c(=O)[nH]c1=O (stereo not drawn)    > 200 µg/mL

Query: MCC; subject: Cc1cn(C2C/C(=N\O)C(CO)O2)c(=O)[nH]c1=O (stereo not drawn)
> 400 µg/mL

Query: MCC; subject: Cc1cn(C2CC([N+](=O)[O-])C(CO)O2)c(=O)[nH]c1=O (stereo not drawn)
> 200 µg/mL

Query: MCC; subject: CO/N=C1/C[C@H](n2cc(C)c(=O)[nH]c2=O)O[C@@H]1CO.CO/N=C1\C[C@H](n2cc(C)c(=O)[nH]c2=O)O[C@@H]1CO
> 200 µg/mL

* * *

# Tested on: E6SM
# assay: 50% Minimum inhibitory concentration which is required to reduce cytopathogenicity induced by (196) strain of HSV-2 virus on human E6SM cells.
# Format: functional
measured-quantity: MIC

Here's what some known entries look like.
Cc1cn(C2C/C(=N\O)C(CO)O2)c(=O)[nH]c1=O (centres undefined)    11 µg/mL
Nc1nc2c(ncn2COC(CO)CO)c(=O)[nH]1    0.006 µg/mL

Query: MIC; subject: CC(=O)O/N=C1/C[C@H](n2cc(C)c(=O)[nH]c2=O)O[C@@H]1CO.CC(=O)O/N=C1\C[C@H](n2cc(C)c(=O)[nH]c2=O)O[C@@H]1CO (racemic)
70 µg/mL

Query: MIC; subject: Cc1cn(C2CC([N+](=O)[O-])C(CO)O2)c(=O)[nH]c1=O (centres undefined)
> 200 µg/mL

* * *

Collected MIC values appear next to each entry.
# Test system: HEL
# assay: 50% Minimum inhibitory concentration which is required to reduce cytopathogenicity induced by (G) strain of HSV-2 virus on human embryonic HEL cells.
# Assay type: functional
Give the value, in units of mg/L, as a plain number.

Here's what some known entries look like.
Cc1cn(C2C/C(=N\O)C(CO)O2)c(=O)[nH]c1=O (stereo not given)    0.5
O=c1[nH]c(=O)n([C@H]2C[C@H](O)[C@@H](CO)O2)cc1/C=C/Br    30

Query: MIC; subject: CC(=O)O/N=C1/C[C@H](n2cc(C)c(=O)[nH]c2=O)O[C@@H]1CO.CC(=O)O/N=C1\C[C@H](n2cc(C)c(=O)[nH]c2=O)O[C@@H]1CO (racemic)
2.8

Query: MIC; subject: Cc1cn(C2CC([N+](=O)[O-])C(CO)O2)c(=O)[nH]c1=O (stereo not given)
20

* * *

Collected EC50 values appear next to each entry.
# System: L1210
# assay: EC50 is the cytotoxic concentration of compound required to reduce L1210 (murine leukemia cells) cell viability by 50%.
# Format: functional, cell-based
# test-conditions: Mus musculus
Give the value, in units of µg/mL, as a plain number.

Cc1cn(C2C/C(=[N+](/[O-])O)C(CO)O2)c(=O)[nH]c1=O (stereo not given)    25
Cc1cn(C2C/C(=N\O)C(CO)O2)c(=O)[nH]c1=O (stereo not given)    1.1

Given the entry CO/N=C1/C[C@H](n2cc(C)c(=O)[nH]c2=O)O[C@@H]1CO.CO/N=C1\C[C@H](n2cc(C)c(=O)[nH]c2=O)O[C@@H]1CO , what EC50 was observed with L1210?
112

Given the entry CC(=O)O/N=C1/C[C@H](n2cc(C)c(=O)[nH]c2=O)O[C@@H]1CO.CC(=O)O/N=C1\C[C@H](n2cc(C)c(=O)[nH]c2=O)O[C@@H]1CO (racemic) , what EC50 was observed with L1210?
19

Given the entry Cc1cn(C2CC([N+](=O)[O-])C(CO)O2)c(=O)[nH]c1=O (stereo not given) , what EC50 was observed with L1210?
58

* * *

# Tested on: MT4
# assay: 50% effective concentration of compound which is required to protect human MT-4 cells against cytopathogenicity of HIV-2.
# Type: functional, cell-based
measured-quantity: EC50 (µg/mL)
Give the value, in units of µg/mL, as a plain number.

Cc1cn(C2C/C(=[N+](/[O-])O)C(CO)O2)c(=O)[nH]c1=O (stereo unspecified)    1.2
Cc1cn([C@H]2C[C@H](N=[N+]=[N-])[C@@H](CO)O2)c(=O)[nH]c1=O    0.0007
Cc1cn(C2C/C(=N\O)C(CO)O2)c(=O)[nH]c1=O (stereo unspecified)    0.03
Cc1cn(C2CC([N+](=O)[O-])C(CO)O2)c(=O)[nH]c1=O (stereo unspecified)    2.2

Query: EC50; subject: CC(=O)O/N=C1/C[C@H](n2cc(C)c(=O)[nH]c2=O)O[C@@H]1CO.CC(=O)O/N=C1\C[C@H](n2cc(C)c(=O)[nH]c2=O)O[C@@H]1CO (racemic)
0.05

Query: EC50; subject: CO/N=C1/C[C@H](n2cc(C)c(=O)[nH]c2=O)O[C@@H]1CO.CO/N=C1\C[C@H](n2cc(C)c(=O)[nH]c2=O)O[C@@H]1CO
4.6

* * *

# Tested on: HEL
# assay: 50% Minimum inhibitory concentration which is required to reduce cytopathogenicity induced by TK-(B2006) strain of HSV-1 virus on human embryonic HEL cells.
# Format: functional
measured-quantity: MIC

Query: MIC; subject: Cc1cn(C2CC([N+](=O)[O-])C(CO)O2)c(=O)[nH]c1=O (stereo not given)
> 50 µg/mL

Query: MIC; subject: O=c1[nH]c(=O)n([C@H]2C[C@H](O)[C@@H](CO)O2)cc1/C=C/Br
50 µg/mL

Query: MIC; subject: Cc1cn(C2C/C(=N\O)C(CO)O2)c(=O)[nH]c1=O (stereo not given)
> 50 µg/mL

Query: MIC; subject: CO/N=C1/C[C@H](n2cc(C)c(=O)[nH]c2=O)O[C@@H]1CO.CO/N=C1\C[C@H](n2cc(C)c(=O)[nH]c2=O)O[C@@H]1CO
> 50 µg/mL

Query: MIC; subject: CC(=O)O/N=C1/C[C@H](n2cc(C)c(=O)[nH]c2=O)O[C@@H]1CO.CC(=O)O/N=C1\C[C@H](n2cc(C)c(=O)[nH]c2=O)O[C@@H]1CO (racemic)
> 5 µg/mL
